Kindly state Residual activity (%) for each of the entries shown.
measurement-description: Thermal stability: residual activity after incubation at 60° C. for one hour
Assay type: biochemical
experimental-conditions: crude recombinant enzyme; after incubation at 60° C. for 1 hour
Numbers only, in %.

Ketose 3-epimerase mutant 19: amino acid-substituted mutant of SEQ ID NO: 1 (protein, Arthrobacter histidinolovorans) MKIGCHGLVWTGRFDAEGIRYSVQKTKEAGFDLIEFPLMDPFSFDVATAKSALAEHGLSVSASLGLSEATDVSSEDPAIVKAGEELLNRALDVLAELGATDFCGVIYSAMKKYMEPATEQGLSNSKAAIGRVVDRAAGLGINVSLEVVNRYETNVLNTGRQALSYLSDVKRPNLGVHLDTYHMNIEESDMFSPVLDTAEVLKYVHIGESHRGYLGTGNVDFDNFFKALGRIGYDGPVVFESFSSAVVAPDLSRMLGIWRNLWADNEELGAHANAFIRDKLTAIKTIELH : 91.2

Suppose we examine the molecule Ketose 3-epimerase mutant 28: amino acid-substituted mutant of SEQ ID NO: 1 (protein, Arthrobacter histidinolovorans) MKIGCHGLVWTGRFDAEGIRYSVQKTKEAGFDLIEFPLMDPFSFDVATAKSALAEHGLTASASLGLSEATDVSSEDPAIVKAGEELLNRALDVLAELGATEFCGVIYSAMKKYMEPATEQGLSNSKAAIGRVVDRAAGLGINVSLEVVNRYETNVLNTGRQALSYLSDVKRPNLGVHLDTYHMNIEESDMFSPVLDTAEVLKYVHIGESHRGYLGTGNVDFDNFFKALGRIGYDGPVVFESFSSAVVAPDLSRMLGIWRNLWADNEELGAHANAFIRDKLTAIKTIELH ; what Residual activity (%) value has been reported?
112.7
